assay: Human hepatocyte clearance study; type: in vitro ADME; conditions: human, pooled cryopreserved human hepatocytes (suspension); scaled up from in vitro t1/2, scaling factor 2544.3; read-out: Human Scale-up Clint
PARAMETER: CLint scaled at 1 µM (mL/min/kg)

The cases that follow already have their CLint scaled at 1 µM on record.
• CC(C)CN(c1ncc(C2(C(=O)O)CCC2)cc1Nc1ccc(C#N)cc1)C1CCOCC1 = 3.3
• CC(C)CN(c1ccc(C2(C(=O)O)CCC2)cc1NC(=O)Nc1ccc(F)cc1F)C1CCOCC1 = 3.9
• CCOc1ncc(Nc2cc(C3(C(=O)O)CCC3)ccc2N(CC)C2CCOCC2)cn1 = 1.7
• CC(C)CN(CC(C)C)c1ncc(C2(C(=O)O)CCC2)cc1Nc1ccc(Cl)cc1 = 5.7

(a) CCN(c1ccc(C2(C(=O)O)CCC2)cc1Nc1ccc(Cl)cn1)C1CCOCC1
(b) CC(C)N(CC1CC1)c1ncc(C2(C(=O)O)CCC2)cc1Nc1ccc(C#N)cn1
Identify the item whose CLint scaled at 1 µM is the smaller number: a or b To answer, give the label that identifies your chosen option.
a

(1) CC(C)N(CC1CC1)c1ncc(C2(C(=O)O)CCC2)cc1Nc1ccc(Cl)cn1
(2) CC(C)CN(CC(C)C)c1ccc(C2(C(=O)O)CCC2)cc1Nc1ccc(Cl)cn1
Select the item whose CLint scaled at 1 µM value is smaller, choosing between 1 and 2 . Answer = label.
2
(2: 13 mL/min/kg, 1: 20 mL/min/kg)

Cited source for all entries: patent US11969425B2
